PROTOCOL SUMMARY: Table I properties of amines: basicity, distribution ratios, flash point
Assay type: physicochemical
CONDITION INFO: second of two pKa values; read-out: Basicity (pKa), second value
MEASURE: pKa

Briefly, pKa measured for "CN(C)CCCN" : 8.2
